B1: RHOBTB3 (parent)
chain: KVVEAHKIVLCAVSHVFMLLFNVK

variants of: B1; assay: protein stability index of a GFP-peptide fusion (GPS, HEK-293T) (PSI 1-6); higher = more stable; conditions: c terminus: a fixed tail appended;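 further: lentivirally expressed fusions sorted by FACS into six bins by GFP to DsRed ratio, PSI derived from sequencing read proportions per bin multiplied by bin number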
Rule: Criterion met for protein stability index not less than 3, Criterion not met for anything less.

*Q* Dear colleague, could you confirm whether `V16S` has protein stability index at or above 3?
*A* Criterion met

*Q* Has `V16N` a recorded protein stability index greater than or equal to 3?
*A* Criterion met

*Q* Record `F21N` ; criterion: protein stability index no lower than 3. Met?
*A* Criterion not met

*Q* Has `V13M` a recorded protein stability index greater than or equal to 3?
*A* Criterion met

*Q* Please check the record `K24A` and state if its protein stability index is at or above 3.
*A* Criterion met

*Q* Is protein stability index for `S14N` at or above 3?
*A* Criterion met

*Q* protein stability index >= 3 for `I8R` ?
*A* Criterion not met

*Q* API: above_or_equal(metric=protein stability index, cutoff=3) for item `V2P`
*A* Criterion met

*Q* Could you tell me if the measured protein stability index of `H6G` reaches 3 or more?
*A* Criterion not met

*Q* Given the entry `M18K` , answer whether its protein stability index meets or surpasses 3.
*A* Criterion not met

*Q* Check the entry `E4R` : does protein stability index equal or exceed 3?
*A* Criterion not met

*Q* Threshold query (protein stability index >= 3) on `V9S`
*A* Criterion met

*Q* Hi, just wondering whether `V9A` shows protein stability index of 3 or higher.
*A* Criterion not met

*Q* Is reported protein stability index greater than or equal to 3 here: `V16L`
*A* Criterion not met

*Q* Test whether the variant `N22E` records protein stability index of 3 or higher.
*A* Criterion not met

*Q* Is the recorded value of protein stability index equal to or greater than 3 for this variant? `F17I`
*A* Criterion not met

*Q* Has `V16G` a recorded protein stability index greater than or equal to 3?
*A* Criterion met

*Q* Could you please find out whether `N22H` has protein stability index that meets 3 or exceeds it?
*A* Criterion not met

*Q* Is protein stability index for `L20E` at or above 3?
*A* Criterion not met

*Q* For this variant, is measured protein stability index 3 or higher? `E4Q`
*A* Criterion not met

*Q* Please indicate if the recorded protein stability index for `M18Y` meets or exceeds 3.
*A* Criterion not met

*Q* Confirm if protein stability index reported for the variant `K24P` is 3 or above.
*A* Criterion met

*Q* Quick check: does `S14L` have protein stability index greater than or equal to 3?
*A* Criterion not met

*Q* Record `M18D` ; criterion: protein stability index no lower than 3. Met?
*A* Criterion not met

*Q* Hi team, for `V16E` , is the recorded protein stability index at or above 3?
*A* Criterion met

*Q* State whether the measured protein stability index reaches 3, counting equality as reaching it, for `L20W`
*A* Criterion not met

*Q* Hi, just wondering whether `S14I` shows protein stability index of 3 or higher.
*A* Criterion not met

*Q* # check: protein stability index of `H15C` is greater than or equal to 3
*A* Criterion met

*Q* Reported protein stability index at or above 3? `K7S`
*A* Criterion not met

*Q* Threshold query (protein stability index >= 3) on `A5C`
*A* Criterion not met

*Q* Hello, I need to know if `F21L` has measured protein stability index not below 3. Thanks!
*A* Criterion not met

*Q* Item `K7C` with protein stability index of 3 or above?
*A* Criterion not met

*Q* protein stability index >= 3 for `F21W` ?
*A* Criterion not met

*Q* hey, is protein stability index for this one >= 3? `V16R`
*A* Criterion not met

*Q* Please tell me: is the variant `V23Q` at or over 3 in terms of protein stability index?
*A* Criterion not met

*Q* Quick check: does `V23E` have protein stability index greater than or equal to 3?
*A* Criterion met

*Q* Does `N22S` have a reported protein stability index of at least 3?
*A* Criterion not met

*Q* State whether the measured protein stability index reaches 3, counting equality as reaching it, for `L10V`
*A* Criterion met

*Q* Given the entry `I8V` , answer whether its protein stability index meets or surpasses 3.
*A* Criterion not met

*Q* Hi, just wondering whether `A5P` shows protein stability index of 3 or higher.
*A* Criterion met

*Q* // inclusive: protein stability index at least 3? input: `K7L`
*A* Criterion not met

*Q* Hello, I need to know if `A5F` has measured protein stability index not below 3. Thanks!
*A* Criterion not met
